tested on: HCC-2998 colon; test: NCI-60 one-dose screen, 48 h; conditions: 10 µM unless noted
About 83,000 compounds went through this panel and 20% of them were active in at least one assay; those are over-represented in the sample as a whole. Calls of active or inactive are those of the source. How the source made its calls: active means growth percent below 10; inactive means the rest.
Would you mind answering with one of these outcomes? active, inactive

Previously resolved entries follow.
Molecule	Class assignment
COc1ccc(-c2[nH]ncc2-c2cc3c(c(OC)c2)OCC(=O)N3)cc1	inactive
Fc1cc2c(cc1Cl)N(c1ncnc3ccc(-c4cnc5cnccn45)cc13)CC2	inactive
Cc1ccc(-c2nc(SCC(=O)Nc3nc(-c4ccc(Cl)cc4)cs3)[nH]c(=O)c2C#N)cc1	inactive
COc1ccc(-c2csc(NC(=O)N3CCN(c4cc5c(cc4F)c(=O)c(C(=O)O)cn5C4CC4)CC3)n2)cc1	inactive
CN1CCN(c2ccc(-c3cc4c(Nc5ccc(F)c(Cl)c5)ncnn4c3)cc2)CC1	inactive

Request: Test call, this molecule: CC(=O)O.CN1[CH-]N(Cc2ccc(C#N)cc2)c2ccccc21.[Ag+]
Response: inactive

Request: Test call, this molecule: Oc1ccc(Cl)cc1Cc1cc(Cl)cc(Cl)c1O
Response: inactive

Request: Test call, this molecule: CN1C(=O)CNC(=O)[C@H](NC(=O)c2nc3ccccc3cc2O)CSSC[C@H]1C(=O)NCCc1nc2ccccc2cc1O
Response: inactive

Request: Test call, this molecule: O=C1CN(CCN2CC(=O)N(Cc3ccccc3)C(=O)C2)CC(=O)N1Cc1ccccc1
Response: inactive

Request: Test call, this molecule: O=C1CSC(c2c(Cl)cccc2Cl)N1c1nc(Cl)cc(=O)[nH]1 (stereo not given)
Response: inactive

Request: Test call, this molecule: C/C(=C\C(=O)c1ccc(Cl)cc1)c1ccc(Cl)cc1
Response: inactive

Request: Test call, this molecule: OC(COc1ccccc1Cl)CN1CCN(c2cccc(Cl)c2)CC1 (stereo not given)
Response: inactive

Request: Test call, this molecule: COc1cc(CCCO)c(OC)c(OC)c1OC
Response: inactive

Request: Test call, this molecule: COc1c(N2CC3CCCN(C(C)=O)C3C2)c(F)cc2c(=O)c(C(=O)N[C@H]3C(O)[C@@H](O)C(CO)O[C@H]3O)cn(C3CC3)c12 (stereo not given in full)
Response: inactive

Request: Test call, this molecule: BrCCCc1n(Cc2ccc3ccccc3c2)c2ccccc2[n+]1Cc1ccc2ccccc2c1
Response: active

Request: Test call, this molecule: CCc1cccc2c3c(sc12)C(c1ccc(F)cc1)C(C#N)=C(N)O3 (stereo not given)
Response: inactive

* * *

Test system: RXF 393 renal
Assay: NCI-60 one-dose screen, 48 h
Conditions: 10 µM unless noted
Method: Cells are grown in 96 well plates and exposed to the test compound for 48 hours. Compounds are tested at a single concentration, which is 10^-5 M for most compounds. The reported endpoint is percent growth (GI% or GIPRCNT), where numbers from 0 - 100% represent growth inhibition, and numbers from -100% - 0 represent cell death. For example, a value of 40 represents 60% growth inhibition. A value of 0 means no net growth occurred over the course of the experiment. […]
About 83,000 compounds went through this panel and 20% of them were active in at least one assay; those are over-represented in the sample as a whole. Calls of active or inactive are those of the source. The calls were made as follows: active = growth percent below 10; inactive = the rest.
Would you mind answering with one of these outcomes? active, inactive

Previously resolved entries follow.
Compound	Class assignment
Cc1ccc(C(=O)N/N=C/c2cccc(Oc3ccccc3)c2)cn1	inactive
Nc1nc(-c2cccc3ccccc23)cc2ccccc12	active

Request: Test call, this compound: COc1ccc(/C=N/Nc2cc(=O)[nH]c3ccc(C)cc23)cc1
Response: inactive

Request: Test call, this compound: CCOC(=O)c1cn2ncnc(Oc3ccc(NC(=O)NCCN(CC)CC)c(Cl)c3)c2c1C
Response: inactive

Request: Test call, this compound: COc1ccccc1/C=C1\Oc2cc(OCCN3CCC(Cc4ccccc4)CC3)ccc2C1=O
Response: inactive

Request: Test call, this compound: O=C1CCC/C=C\C[C@H]2C=CC(=O)/C2=C/C[C@H](CCc2cccc(C(F)(F)F)c2)O1
Response: active

Request: Test call, this compound: Cc1cc(N2CCCC2)nc(N(CCCNc2ccnc3cc(Cl)ccc23)Cc2ccccn2)n1
Response: inactive

Request: Test call, this compound: CCCCCCCCCCCCCCCCCCOc1ccc(CC(=O)OCC[N+]2(C)CCCCC2)cc1
Response: inactive

Request: Test call, this compound: COc1cc(C(=O)N2N=C(c3ccc(S(C)(=O)=O)cc3)CC2c2ccco2)cc(OC)c1OC (centres undefined)
Response: inactive

Request: Test call, this compound: CCOc1cccc(NC2=C(Br)C(=O)C(C)=C(C)C2=O)c1
Response: inactive

* * *

tested on: SK-MEL-5 melanoma; experiment: NCI-60 one-dose screen, 48 h; settings: 10 µM unless noted
About 83,000 compounds went through this panel and 20% of them were active in at least one assay; those are over-represented in the sample as a whole. The source made the active and inactive calls. Rule for the calls: active = growth percent below 10; inactive = the rest.
Would you mind answering with one of these outcomes? T = active, F = inactive

Request: Test call, this molecule: CN1CCN(Cc2ccc(NC(=O)c3cncc(C#Cc4cnccc4C#N)c3)cc2C(F)(F)F)CC1
Response: F

* * *

# growth annotations
test system: SF-268 CNS; assay: NCI-60 one-dose screen, 48 h (100 = growth as untreated, 0 = no growth, -100 = all killed); details: 10 µM unless noted
Compounds without any hit were thinned out: in the full panel of roughly 83,000, 20% have a hit. Active and inactive are the calls of the source. How the source made its calls: active means growth percent below 10; inactive means the rest.

Compound	Tested target	growth
O=c1[nH]c2c(ccc3cnccc32)c2c1CCC2	SF-268 CNS	-17.7% (active)

Request: // fetch SF-268 CNS growth for CN(C)CCNc1nc2ccccc2c2c(=O)c3cc(F)ccc3sc12
Response: 45.6% (inactive)

Request: // fetch SF-268 CNS growth for CCCCC1CCCC12NC(=O)NC2=O (stereo not given)
Response: 99.5% (inactive)

Request: // fetch SF-268 CNS growth for COc1ccc(CNC(=O)C(=O)[C@H](Cc2ccccc2)NC(=O)c2[nH]c3ccccc3c(=O)c2C)cc1
Response: 101% (inactive)

Request: // fetch SF-268 CNS growth for O=C(CSc1nc2ccccc2[nH]1)Nc1cccc(Cl)c1
Response: 97.1% (inactive)

Request: // fetch SF-268 CNS growth for Cc1nc2nc(SCC(=O)O)[nH]c2c(=O)[nH]1
Response: 108% (inactive)

Request: // fetch SF-268 CNS growth for COc1cc(C2CC(c3cccc(Br)c3)=NN2C(C)=O)cc(OC)c1OC (stereo not given)
Response: 55.3% (inactive)

Request: // fetch SF-268 CNS growth for COc1cc2cc(Oc3ccc(NC(=O)Nc4cc(C(F)(F)F)cc(C(F)(F)F)c4)cc3)c(C)nc2cc1OCCN1CCOCC1
Response: 27.8% (inactive)

Request: // fetch SF-268 CNS growth for Cc1[nH]c(C(=O)Nc2ccc(C(=O)NCCN)cc2OC(C)C)c(Cl)c1Cl
Response: 68.1% (inactive)

Request: // fetch SF-268 CNS growth for O=C(N/N=C/[C@@H](O)[C@H](O)[C@H](O)CO)c1ccc(NC(=O)c2cccnc2)cc1
Response: 98.5% (inactive)

* * *

system: SK-MEL-28 melanoma; test: NCI-60 one-dose screen, 48 h (100 = growth as untreated, 0 = no growth, -100 = all killed); conditions: 10 µM unless noted
The panel holds about 83,000 compounds, 20% with a hit somewhere; the sample as a whole holds those more often. Active and inactive are the calls of the source. The calls were made as follows: active = growth percent below 10; inactive = the rest.
# growth annotations

The following compounds have reported results that may help.
Compound	growth
CC(=O)OC[C@H]1OC(Sc2sc(C(=O)c3ccc(Cl)cc3)c(N)c2-c2nc3ccccc3s2)[C@H](OC(C)=O)[C@@H](OC(C)=O)[C@@H]1OC(C)=O (stereo not given in full)	94.2% (inactive)
O=c1c2cccc(Cl)c2sc2c(NCCCNCCO)nc3ccccc3c12	72.1% (inactive)
C#Cc1cccc(NC(=O)Nc2ccccc2NC(=O)CCl)c1	-10.4% [8.25 µM] (active)

Request: // fetch SK-MEL-28 melanoma growth for O=c1c2cccc(F)c2sc2c(NCCCNCCO)nc3ccccc3c12
Response: 64.2% (inactive)

Request: // fetch SK-MEL-28 melanoma growth for CCOC(=O)/C(C#N)=C\Nc1ccc2ncnc(Nc3ccc(Cl)cc3Cl)c2c1
Response: 109% (inactive)

* * *

test system: SF-295 CNS; assay: NCI-60 one-dose screen, 48 h (100 = growth as untreated, 0 = no growth, -100 = all killed); conditions: 10 µM unless noted
About 83,000 compounds went through this panel and 20% of them were active in at least one assay; those are over-represented in the sample as a whole.
# growth annotations
Express it in %; write the number only.

Compound	Tested target	growth (%)
COc1ccc2sc3c(NCCO)nc4ccccc4c3c(=O)c2c1	SF-295 CNS	100
COc1cc2cc(Oc3ccc(NC(=O)Nc4ccc(F)c(C(F)(F)F)c4)cc3)c(C)nc2cc1OCCN1CCOCC1	SF-295 CNS	0.809
CN1CCN(Cc2ccc(NC(=O)c3cncc(C#Cc4cnccc4C#N)c3)cc2C(F)(F)F)CC1	SF-295 CNS	96.3
CN(C)CCCNc1nc2ccccc2c2c(=O)c3cc(F)ccc3sc12	SF-295 CNS	78.2
C=C1CC[C@H](C(C)C)[C@@H]2[C@H]1[C@H]1CC(=C)[C@@H](O)CC[C@@](C)(O)[C@@H]2O1	SF-295 CNS	98.4
COc1ccc(C2=Nn3c(nnc3-c3cc(Cl)cc(Cl)c3Cl)SC2)cc1	SF-295 CNS	0.025

Request: Return reported growth; argument: COC1=C(C)C(=O)c2c(c(CCCl)c3n2CCC3O)C1=O (stereo not given)
Response: -12

Request: Return reported growth; argument: Cc1cc2nc3cc(C)c(N)cc3[n+](-c3ccccc3)c2cc1N
Response: 34.5

Request: Return reported growth; argument: O=C(Nc1ccc(Cl)cc1F)c1ccccc1O
Response: 69.7

Request: Return reported growth; argument: Cc1ccc(/C=C(\C#N)n2nc3cccc(F)c3n2)cc1
Response: 92.8
